Molecular target: gamma-aminobutyric acid type A (GABAA) receptor α1(L264T)β2γ2L (Homo sapiens, UniProt P14867+P47870, P14867:L291T)
Sequence (P14867 28-456 L291T): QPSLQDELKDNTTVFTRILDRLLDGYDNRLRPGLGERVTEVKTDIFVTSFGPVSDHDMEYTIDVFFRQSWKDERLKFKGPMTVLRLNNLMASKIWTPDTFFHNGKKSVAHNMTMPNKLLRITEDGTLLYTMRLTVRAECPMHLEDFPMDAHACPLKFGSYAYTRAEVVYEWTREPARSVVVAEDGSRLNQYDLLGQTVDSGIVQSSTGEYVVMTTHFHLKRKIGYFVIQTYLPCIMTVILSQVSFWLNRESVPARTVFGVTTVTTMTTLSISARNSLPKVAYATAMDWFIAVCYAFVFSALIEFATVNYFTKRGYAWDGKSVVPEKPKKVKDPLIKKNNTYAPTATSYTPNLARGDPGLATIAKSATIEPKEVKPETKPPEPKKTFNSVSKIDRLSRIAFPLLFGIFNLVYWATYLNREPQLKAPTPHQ
Sequence (P47870 26-512): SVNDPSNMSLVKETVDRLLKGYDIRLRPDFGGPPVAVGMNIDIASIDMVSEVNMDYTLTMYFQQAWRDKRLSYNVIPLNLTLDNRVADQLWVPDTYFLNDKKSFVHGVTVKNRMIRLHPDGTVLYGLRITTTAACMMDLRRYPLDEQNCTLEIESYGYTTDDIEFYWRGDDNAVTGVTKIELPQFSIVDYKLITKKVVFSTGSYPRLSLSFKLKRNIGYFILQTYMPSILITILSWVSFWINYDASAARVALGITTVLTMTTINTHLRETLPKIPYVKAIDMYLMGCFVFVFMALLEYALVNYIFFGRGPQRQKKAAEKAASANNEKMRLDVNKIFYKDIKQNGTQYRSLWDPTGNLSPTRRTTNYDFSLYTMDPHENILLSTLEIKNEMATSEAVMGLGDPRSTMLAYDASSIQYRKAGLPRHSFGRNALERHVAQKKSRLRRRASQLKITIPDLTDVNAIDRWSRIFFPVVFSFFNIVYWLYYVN
Sequence (P18507 40-475 partner): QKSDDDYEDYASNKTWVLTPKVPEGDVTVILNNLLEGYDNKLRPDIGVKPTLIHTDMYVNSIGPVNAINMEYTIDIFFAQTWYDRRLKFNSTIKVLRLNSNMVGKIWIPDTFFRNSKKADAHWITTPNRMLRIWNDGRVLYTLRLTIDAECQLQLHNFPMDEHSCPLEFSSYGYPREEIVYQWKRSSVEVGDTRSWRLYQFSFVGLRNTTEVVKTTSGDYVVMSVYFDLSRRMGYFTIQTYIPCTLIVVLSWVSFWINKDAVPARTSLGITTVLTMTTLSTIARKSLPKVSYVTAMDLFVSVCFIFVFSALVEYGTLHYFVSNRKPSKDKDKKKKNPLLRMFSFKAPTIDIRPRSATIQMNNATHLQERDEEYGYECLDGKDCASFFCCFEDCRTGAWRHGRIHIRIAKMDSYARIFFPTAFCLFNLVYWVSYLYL
Assay: cell-based
pEC50: −log10 of the molar value.

# compound, pEC50
measured = [
    ("COC(=O)CCOC(=O)c1cncn1[C@H](C)c1ccccc1 [MOC-etomidate, methoxycarbonyl etomidate]", 5.00),
    ("C[C@H](c1ccccc1)n1cncc1C(=O)OCCC(=O)O", 2.46),
]
